- TEST DETAILS: NCI Yeast Anticancer Drug Screen. Data for the cln2 rad14 strain (AID 165);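 note: 0% = growth equal to vehicle treated cultures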
- CONDITION LABEL: S. cerevisiae cln2 rad14 strain, at 50.0 µM, active compounds read high
About 79,000 compounds went through this panel and 15% of them were active in at least one assay; those are over-represented in the sample as a whole.
Param threshold (10%) applies to growth inhibition; output 1.0 when value >= threshold, 0.0 when value < threshold.

MOLECULE	ASSIGNED CATEGORY
COC12C(COC(N)=O)C3=C(C(=O)C(C)=C(NC(C)C)C3=O)N1CC1NC12 (configuration not stated)	1.0
[C-]#[O+].[C-]#[O+].[C-]#[O+].[Mo].c1ccc([PH+](CC[As](c2ccccc2)c2ccccc2)CC[As](c2ccccc2)c2ccccc2)cc1	1.0
CCCC(=O)O.[Ni]	0.0
CC(C)OC(N)=O	1.0
NC(Cc1cc([N+](=O)[O-])ccc1CN(CCCl)CCCl)C(=O)O (configuration not stated)	1.0
Cc1cc(OCC2=NCCN2)c(C)c(C)c1Cl	1.0
CNC(Cc1ccccc1)c1cccc(O)c1 (configuration not stated)	0.0
CC(=O)Nc1ccccc1[As](OC(C)=O)c1ccccc1 (configuration not stated)	1.0
NC(=NCc1ccccc1)N[N+](=O)[O-]	1.0
Cc1ccc2nc(NC(=O)C(=O)C3C(=O)NC(=S)NC3=O)sc2c1	0.0
CCCCCCCCCCCOP(=O)(OCC)OCC	1.0

###

- TEST DETAILS: NCI Yeast Anticancer Drug Screen. Data for the rad50 strain (AID 155);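 note: 0% = growth of vehicle-only cultures of the same strain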
- CONDITION LABEL: S. cerevisiae rad50 strain growth inhibition; at 50.0 µM
Compounds without any hit were thinned out: in the full panel of roughly 79,000, 15% have a hit. Activity calls are given as the source filed them. Rule as the data show it: active = growth inhibition above about 70%; inactive = the rest.
Outcomes: label 1 for active, label 0 for inactive

COMPOUND	ASSIGNED CATEGORY
CCC1(O)CC(O)c2c(O)c3c(c(O)c2C1C(=O)OC)C(=O)c1cccc(O)c1C3=O (stereo not given)	label 0
c1ccc(-c2cccc(-c3ccccc3)c2)cc1	label 0
Cc1ccc(S(=O)(=O)NNP(Br)(c2ccccc2)(c2ccccc2)c2ccccc2)cc1	label 0
O=c1oc2ccccc2c(O)c1C(C/C(CCN1CCCC1)=N/O)c1ccccc1 (stereo not given)	label 1
CC[As](CC)SCC1OC(OC(C)=O)C(OC(C)=O)C(OC(C)=O)C1OC(C)=O (stereo not given)	label 1
CCOC(=O)C1C(O)=C(P(=O)(C2=C(O)C(C(=O)OCC)C(c3ccc(OC(C)=O)cc3)C(C(=O)O)C2=O)N(CCCl)CCCl)C(=O)C(C(=O)O)C1c1ccc(OC(C)=O)cc1 (stereo not given)	label 0
COc1ccc(C[C@H]2NC[C@H](O)[C@H]2OC(C)=O)cc1	label 1
O=S(=O)(F)c1ccc(Cl)cc1	label 1
N#CC(Cl)(Cl)CCl	label 0
O=C(COc1ccc(Cl)c(Cl)c1)Nc1ccc[n+](Cc2ccc(Cl)c(S(=O)(=O)F)c2)c1	label 1
C/C(=C\c1ccc(Cl)c(Cl)c1)[N+](=O)[O-]	label 0
O=C(CC(=O)c1ccccc1)c1ccccc1.O=C(CC(=O)c1ccccc1)c1ccccc1.O=C(CC(=O)c1ccccc1)c1ccccc1.[Al]	label 0
N.N.O=P([O-])([O-])CN(CP(=O)([O-])[O-])CP(=O)([O-])[O-].[Pt+2]	label 0
CCC[CH2][Sn]([CH2]CCC)([CH2]CCC)[CH2]CC[N+](C)(CCO)CCO.CS(=O)(=O)[O-]	label 1
CSC(SC)=C1C(=O)NC(=O)NC1=O	label 0
Nc1nnc[se]1	label 0
CC(C)(C)C1=CC(=C(P(=O)(O)O)P(=O)(O)O)C=C(C(C)(C)C)C1=O	label 0
COC(=O)[CH2][Sn]([CH2]C(=O)OC)([c]1ccccc1)[c]1ccccc1	label 1
O=C(OCc1nc2ccccn2c1[N+](=O)[O-])N(CCCl)CCCl	label 0
CCOC(=O)C1OC(C2(C)OC3(OC4(C=CC3O)OC(C(C)C(=O)C(C)C(O)C(C)CC(C)c3c(Cl)cc(C)c(O)c3C(=O)O)C(C)CC4C)C(C)C2OC)CC1O (stereo not given)	label 0
